// EC50 lookup, one value per entry
Target: UniProt:Q96S37
Assay: URAT1-model assay, 14C-uric acid transport in HEK293/URAT1-model cells
Settings: 14C-uric acid 125 μM, 10 minutes at room temperature, read-out: URAT1 EC50 Activity Ranking
Description: HEK293 human embryonic kidney cells (ATCC #CRL-1573) were propagated in EMEM tissue culture medium as described by ATCC in an atmosphere of 5% C02 and 95% air. Transfections of HEK293 cells with a model URAT1 construct was performed using L2000 transfection reagent (Invitrogen) as described by the manufacturer. […] Cells were grown overnight (20-26 hours) at 37° C. in an incubator. […] Plates are then read on the TopCount Plate Reader and an EC50 value generated. […]

Recorded EC50, per entry:
1) Cc1ccc(-c2cnccc2SC(C)(C)C(=O)O)c2ccccc12 50 to 500 nM
2) N#Cc1ccc(-c2nccnc2SCC(=O)O)c2ccccc12 500 to 10000 nM

Exam item: I'm curious: which EC50 was measured for CC(C)(Sc1ccncc1-c1ccc(S)cc1)C(=O)O tested on UniProt:Q96S37?
Marked response: 50 to 500 nM

###

Target: URAT1 (Homo sapiens (Human), UniProt Q96S37)
Sequence (Q96S37 whole entry, species assumed): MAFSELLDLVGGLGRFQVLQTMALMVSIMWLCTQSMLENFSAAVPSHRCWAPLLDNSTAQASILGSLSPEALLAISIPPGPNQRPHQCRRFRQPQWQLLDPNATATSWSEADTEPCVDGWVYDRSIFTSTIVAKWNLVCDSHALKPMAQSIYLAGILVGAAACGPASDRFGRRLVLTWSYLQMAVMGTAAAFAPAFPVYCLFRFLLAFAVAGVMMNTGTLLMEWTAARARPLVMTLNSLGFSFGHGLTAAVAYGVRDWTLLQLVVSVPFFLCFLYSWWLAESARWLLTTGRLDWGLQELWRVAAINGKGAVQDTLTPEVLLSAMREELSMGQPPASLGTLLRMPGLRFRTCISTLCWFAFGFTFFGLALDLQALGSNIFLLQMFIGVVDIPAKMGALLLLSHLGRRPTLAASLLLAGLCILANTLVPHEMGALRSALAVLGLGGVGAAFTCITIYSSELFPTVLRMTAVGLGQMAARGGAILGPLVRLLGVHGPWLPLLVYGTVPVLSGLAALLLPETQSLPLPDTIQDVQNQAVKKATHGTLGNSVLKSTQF
Assay: URAT1-model assay, 14C-uric acid transport in HEK293/URAT1-model cells
Details: 14C-uric acid 125 μM, 10 minutes at room temperature, read-out: URAT1 EC50 Activity Ranking
pEC50: −log10 of the molar value.
pEC50 reference

Here is how some compounds turned out for pEC50.
compound	testedSystem	recordedResult
CC(C)(Sc1ccncc1-c1ccc(Cl)c(C(F)(F)F)c1)C(=O)O	URAT1 (Homo sapiens (Human), UniProt Q96S37)	6.30 to 7.30
CC(C)(Sc1ccncc1-c1cccc2ncccc12)C(=O)O	URAT1 (Homo sapiens (Human), UniProt Q96S37)	6.30 to 7.30
CC(=O)Nc1ccc(-c2cnccc2SC(C)(C)C(=O)O)cc1	URAT1 (Homo sapiens (Human), UniProt Q96S37)	6.30 to 7.30
CC(C)(Sc1ccncc1-c1ccc(Br)cc1)C(=O)O	URAT1 (Homo sapiens (Human), UniProt Q96S37)	7.30 to 9.00
CC(C)(Sc1ccncc1-c1ccc(F)cc1)C(=O)O	URAT1 (Homo sapiens (Human), UniProt Q96S37)	6.30 to 7.30
N#Cc1ccc(-c2cccnc2SC2(C(=O)O)CCC2)c2ccccc12	URAT1 (Homo sapiens (Human), UniProt Q96S37)	6.30 to 7.30
CC(C)(Sc1ccncc1-c1ccnc2ccccc12)C(=O)O	URAT1 (Homo sapiens (Human), UniProt Q96S37)	6.30 to 7.30
CC(C)(Sc1ccncc1-c1ccc(Cl)cc1)C(=O)O [Example 2O]	URAT1 (Homo sapiens (Human), UniProt Q96S37)	7.30 to 9.00

Exam item: Consider the compound CC(C)(Sc1ccncc1-c1ccc(O)cc1)C(=O)O and give its measured pEC50.
Marked response: 7.30 to 9.00

Exam item: Fill in: pEC50 of CC(C)(Sc1ccncc1-c1ccc(C#N)c(Cl)c1)C(=O)O is ___
Marked response: 7.30 to 9.00

Exam item: Recorded pEC50 for CC(C)(Sc1ccncc1-c1ccc(C#N)cc1)C(=O)O , please?
Marked response: 7.30 to 9.00

Exam item: Recorded pEC50 of CC(C)(Sc1ccncc1-c1ccc(C#N)cc1F)C(=O)O , please.
Marked response: 7.30 to 9.00

Exam item: Consider the compound shown here: COc1cncc(-c2cnccc2SC(C)(C)C(=O)O)c1 What is its recorded pEC50?
Marked response: 6.30 to 7.30

Exam item: Given CCc1ccc(-c2cnccc2SC(C)(C)C(=O)O)cc1 , state its recorded pEC50.
Marked response: 6.30 to 7.30

Exam item: Which measured pEC50 value corresponds to COc1ccc(-c2cnccc2SC(C)(C)C(=O)O)cc1 ?
Marked response: 6.30 to 7.30

Exam item: Fill blank: measured pEC50 of the compound CC(C)(Sc1ccncc1-c1cnc2ccccc2c1)C(=O)O is ____.
Marked response: 6.30 to 7.30

Exam item: pEC50 lookup needed for Cc1cc(C#N)ccc1-c1cnccc1SC(C)(C)C(=O)O , thanks.
Marked response: 7.30 to 9.00

Exam item: Reported pEC50, compound N#Cc1ccc(-c2cnccc2SC2(C(=O)O)CCC2)c2ccccc12 : ____
Marked response: 7.30 to 9.00

Exam item: Query: pEC50; subject: Cc1cc(C(N)=O)ccc1-c1cnccc1SC(C)(C)C(=O)O
Marked response: 6.30 to 7.30

Exam item: I am curious: what pEC50 value has been reported for CC(C)(Sc1ccncc1-c1ccc(F)c(F)c1)C(=O)O ?
Marked response: 6.30 to 7.30
